Source of measurements: patent US11547697B2

Biological target: p110α/p85α (Homo sapiens (Human), UniProt P42336)
Sequence (P42336 whole entry): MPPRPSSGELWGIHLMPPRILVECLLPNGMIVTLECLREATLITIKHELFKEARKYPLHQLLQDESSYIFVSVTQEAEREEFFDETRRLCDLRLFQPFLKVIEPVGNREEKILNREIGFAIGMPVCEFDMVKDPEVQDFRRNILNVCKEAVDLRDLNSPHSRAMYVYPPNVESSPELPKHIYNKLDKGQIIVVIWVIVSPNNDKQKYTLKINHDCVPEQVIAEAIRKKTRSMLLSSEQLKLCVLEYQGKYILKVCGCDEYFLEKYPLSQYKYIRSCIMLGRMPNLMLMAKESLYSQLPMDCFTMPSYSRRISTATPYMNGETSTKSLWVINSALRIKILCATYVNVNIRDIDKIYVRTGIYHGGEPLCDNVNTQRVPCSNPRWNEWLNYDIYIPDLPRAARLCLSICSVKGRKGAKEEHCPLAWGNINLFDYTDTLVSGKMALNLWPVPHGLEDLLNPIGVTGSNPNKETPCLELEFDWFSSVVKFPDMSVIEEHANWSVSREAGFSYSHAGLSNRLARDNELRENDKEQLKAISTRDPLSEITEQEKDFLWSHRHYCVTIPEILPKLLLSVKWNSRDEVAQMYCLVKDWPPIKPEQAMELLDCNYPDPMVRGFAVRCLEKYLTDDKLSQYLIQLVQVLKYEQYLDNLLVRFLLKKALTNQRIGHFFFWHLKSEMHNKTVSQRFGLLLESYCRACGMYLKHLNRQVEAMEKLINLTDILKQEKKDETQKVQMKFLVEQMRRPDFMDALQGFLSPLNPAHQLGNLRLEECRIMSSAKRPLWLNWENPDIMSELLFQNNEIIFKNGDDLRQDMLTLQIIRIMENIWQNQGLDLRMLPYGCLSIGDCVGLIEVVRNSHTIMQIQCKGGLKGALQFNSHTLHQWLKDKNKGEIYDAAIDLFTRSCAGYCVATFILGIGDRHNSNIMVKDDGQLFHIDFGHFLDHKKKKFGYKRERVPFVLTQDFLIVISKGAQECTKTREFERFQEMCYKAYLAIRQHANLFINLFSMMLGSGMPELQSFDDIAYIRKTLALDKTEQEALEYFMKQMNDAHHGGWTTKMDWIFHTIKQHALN
Sequence (P27986 whole entry partner): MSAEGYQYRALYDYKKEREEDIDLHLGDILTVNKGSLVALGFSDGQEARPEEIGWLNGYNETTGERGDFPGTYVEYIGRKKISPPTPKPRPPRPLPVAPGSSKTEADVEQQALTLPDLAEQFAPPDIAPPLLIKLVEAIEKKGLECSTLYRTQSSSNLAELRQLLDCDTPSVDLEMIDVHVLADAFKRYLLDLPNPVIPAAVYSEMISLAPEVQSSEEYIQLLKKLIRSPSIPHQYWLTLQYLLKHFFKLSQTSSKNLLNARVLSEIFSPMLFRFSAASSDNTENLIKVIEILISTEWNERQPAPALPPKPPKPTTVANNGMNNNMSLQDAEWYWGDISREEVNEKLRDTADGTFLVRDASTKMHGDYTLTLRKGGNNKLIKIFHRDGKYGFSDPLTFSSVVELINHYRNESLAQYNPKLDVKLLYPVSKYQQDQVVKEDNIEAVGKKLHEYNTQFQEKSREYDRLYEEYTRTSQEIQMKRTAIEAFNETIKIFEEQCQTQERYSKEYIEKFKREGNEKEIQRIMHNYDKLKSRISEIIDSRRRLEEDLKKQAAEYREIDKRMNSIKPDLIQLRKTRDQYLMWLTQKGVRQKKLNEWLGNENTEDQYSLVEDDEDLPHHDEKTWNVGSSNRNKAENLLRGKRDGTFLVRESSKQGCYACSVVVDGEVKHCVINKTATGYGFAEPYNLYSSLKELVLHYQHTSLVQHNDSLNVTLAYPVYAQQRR
Assay: PI 3-Kinase (human) HTRF assay, p110α/p85α
Type: biochemical
Conditions: read-out: PI3K α IC50
property: IC50

The compound CS(=O)(=O)N1CCN(c2cnc3ccc(-c4ccc5oc(N)nc5c4)cc3n2)CC1 , when measured on p110α/p85α (Homo sapiens (Human), UniProt P42336), yielded IC50 of < 100 nM

The compound CN(C)CC(=O)N1CCN(c2cnc3ccc(-c4ccc5oc(N)nc5c4)cc3n2)CC1 , when measured on p110α/p85α (Homo sapiens (Human), UniProt P42336), yielded IC50 of < 100 nM

The compound CN1CCN(c2ccnc3ccc(-c4ccc5oc(N)nc5c4)cc23)CC1 , when measured on p110α/p85α (Homo sapiens (Human), UniProt P42336), yielded IC50 of < 1000 nM

The compound Nc1noc2ccc(-c3ccc4nccc(-c5ccncc5)c4c3)cc12 , when measured on p110α/p85α (Homo sapiens (Human), UniProt P42336), yielded IC50 of < 10000 nM

The compound Nc1nc2cc(-c3ccc4ncc(N5CCC(O)CC5)nc4c3)ccc2o1 , when measured on p110α/p85α (Homo sapiens (Human), UniProt P42336), yielded IC50 of < 100 nM

The compound CC(=O)N1CCN(C(=O)c2cnc3ccc(-c4ccc5oc(N)nc5c4)cn23)CC1 , when measured on p110α/p85α (Homo sapiens (Human), UniProt P42336), yielded IC50 of < 100 nM

The compound CN1CCN(c2cnc3ccc(-c4ccc5nc(N)oc5c4)cc3n2)CC1 , when measured on p110α/p85α (Homo sapiens (Human), UniProt P42336), yielded IC50 of < 1000 nM

The compound Nc1nc2cc(-c3ccc4ncc(C(=O)N5CCOCC5)cc4c3)ccc2o1 , when measured on p110α/p85α (Homo sapiens (Human), UniProt P42336), yielded IC50 of < 10000 nM

The compound CC(=O)N1CCC(Nc2cnc3ccc(-c4ccc5oc(N)nc5c4)cc3n2)CC1 , when measured on p110α/p85α (Homo sapiens (Human), UniProt P42336), yielded IC50 of < 100 nM

The compound Nc1nc2cc(-c3ccc4ncc(N[C@H]5CC[C@H](O)CC5)nc4c3)ccc2o1 , when measured on p110α/p85α (Homo sapiens (Human), UniProt P42336), yielded IC50 of < 100 nM

The compound Cn1cc(-c2cnc3ccc(-c4ccc5oc(N)nc5c4)cn23)cn1 , when measured on p110α/p85α (Homo sapiens (Human), UniProt P42336), yielded IC50 of < 100 nM

The compound Nc1nc2cc(-c3ccc4ncc(C(=O)N5CCN(CC6CC6)CC5)n4c3)ccc2o1 , when measured on p110α/p85α (Homo sapiens (Human), UniProt P42336), yielded IC50 of < 1000 nM

The compound Nc1nc2cc(-c3ccc4ncnc(N5CCC(O)CC5)c4c3)ccc2o1 , when measured on p110α/p85α (Homo sapiens (Human), UniProt P42336), yielded IC50 of < 100 nM

The compound CN1CCN(C(=O)c2cnc3ccc(-c4ccc5sc(N)nc5c4)cn23)CC1 , when measured on p110α/p85α (Homo sapiens (Human), UniProt P42336), yielded IC50 of < 1000 nM

The compound Nc1nc2cc(-c3ccc4ncc(C(=O)N5CCC(O)CC5)n4c3)ccc2o1 , when measured on p110α/p85α (Homo sapiens (Human), UniProt P42336), yielded IC50 of < 1000 nM

The compound Nc1nc2cc(-c3ccc4ncc(N5CCN(CCO)CC5)nc4c3)ccc2o1 , when measured on p110α/p85α (Homo sapiens (Human), UniProt P42336), yielded IC50 of < 100 nM

The compound CS(=O)(=O)N1CCN(C(=O)c2cnc3ccc(-c4ccc5oc(N)nc5c4)cn23)CC1 , when measured on p110α/p85α (Homo sapiens (Human), UniProt P42336), yielded IC50 of < 100 nM

The compound CC1CN(c2cnc3ccc(-c4ccc5oc(N)nc5c4)cc3n2)CCO1 (stereo not drawn) , when measured on p110α/p85α (Homo sapiens (Human), UniProt P42336), yielded IC50 of < 100 nM

The compound CN1CCC(Oc2ncnc3ccc(-c4ccc5oc(N)nc5c4)cc23)CC1 , when measured on p110α/p85α (Homo sapiens (Human), UniProt P42336), yielded IC50 of < 100 nM

The compound CN1CCN(c2cc(-c3cnc4ccc(-c5ccc6oc(N)nc6c5)cn34)ccn2)CC1 , when measured on p110α/p85α (Homo sapiens (Human), UniProt P42336), yielded IC50 of < 100 nM

The compound Nc1nc2cc(-c3ccc4ncc(N5CCOCC5)nc4c3)ccc2s1 , when measured on p110α/p85α (Homo sapiens (Human), UniProt P42336), yielded IC50 of < 100 nM

The compound CN1CCC(N(C)C(=O)c2cnc3ccc(-c4ccc5oc(N)nc5c4)cn23)CC1 , when measured on p110α/p85α (Homo sapiens (Human), UniProt P42336), yielded IC50 of < 1000 nM

The compound CN1CCN(c2cnc3ccc(-c4ccc5nc(N)sc5c4)cc3n2)CC1 , when measured on p110α/p85α (Homo sapiens (Human), UniProt P42336), yielded IC50 of < 100 nM

The compound Nc1nc2cc(-c3ccc4ncc(N5CC(C(=O)N6CCOCC6)C5)nc4c3)ccc2o1 , when measured on p110α/p85α (Homo sapiens (Human), UniProt P42336), yielded IC50 of < 100 nM
